Cited source: patent US9796733B2

- Measured On: sGC α1/β1 heterodimer (Homo sapiens, UniProt Q02108+Q02153)
- Method: Cell-based sGC functional assay (CASA assay): cGMP generation in CHO-K1/sGC cells, HTRF detection
- Measurement Conditions: inflection point (IP) of cGMP generation in CHO-K1/sGC cells, 4P fit; activity expressed as percentage of Compound A
Endpoint Name: EC50 (µM)

CC(C)Cc1nc(-c2nc(N)c3c(n2)NC(=O)C3(C)c2ccc(C(F)(F)F)cc2)cn2ccnc12 (stereo not shown) [Example 128B]    0.164
CCCCc1nc(-c2nc(N)c3c(n2)NC(=O)C3(c2ccc(C(F)(F)F)cn2)C2CC2)cn2ccnc12 (stereo not shown) [Example 133A]    0.037
COCCNc1nc(-c2cn3ccnc3c(CCC(F)(F)C(F)(F)F)n2)nc2c1C(C)(c1ccc(F)cc1)C(=O)N2 (stereo not shown) [Example 309A]    0.039
CCCCc1nc(-c2nc(N)c3c(n2)NC(=O)C3(C)c2ccc(F)cc2)cn2ccnc12 (stereo not shown) [Example 8A]    0.045
CC(C)Cc1nc(-c2nc(N)c3c(n2)NC(=O)C3(C)c2ccc(Cl)cn2)cn2ccnc12 (stereo not shown) [Example 125A]    0.041

(A) Nc1nc(-c2cn3ccnc3c(CCC(F)(F)C(F)(F)F)n2)nc2c1C(c1nnc(C3CC3)s1)(C1CC1)C(=O)N2 (stereo not shown) [Example 54A]
(B) Nc1nc(-c2cn3ccnc3c(CCC(F)(F)F)n2)nc2c1C(c1ccc(OC(F)(F)F)cc1)(C1CC1)C(=O)N2 (stereo not shown) [Example 328A]
Could you please tell me which of these two has the higher EC50: A or B ? Response format: the label of the selected entry. B

(1) CC1(c2ccc(F)cc2)C(=O)Nc2nc(-c3cn4ccnc4cn3)nc(N)c21 (stereo not shown) [Example 134A]
(2) CC1(c2ccc(F)cc2F)C(=O)Nc2nc(-c3cn4ccnc4c(CCC(F)(F)F)n3)nc(N)c21 (stereo not shown) [Example 180A]
Problem: Given the entries 1 and 2 , determine which has the lower reported EC50. Response format: the label of the selected entry. 2

(1) CC1(c2ccc(F)cc2)C(=O)Nc2nc(-c3cn4ccnc4c(CCC(F)(F)C(F)(F)F)n3)nc(N3CCC3)c21 (stereo not shown) [Example 306A]
(2) CC1(c2ccc(Cl)cc2)C(=O)Nc2nc(-c3cn4ccnc4cn3)nc(NCCC(F)(F)F)c21 (stereo not shown) [Example 289A]
Problem: Given the entries 1 and 2 , determine which has the lower reported EC50. Response format: the label of the selected entry. 1

(I) CC1(c2ccccn2)C(=O)Nc2nc(-c3cn4ccnc4c(Cc4ccc(F)cc4)n3)nc(N)c21 (stereo not shown) [Example 103B]
(II) CCc1nnc(C2(C3CC3)C(=O)Nc3nc(-c4cn5ccnc5c(CCC(F)(F)C(F)(F)F)n4)nc(N)c32)s1 (single isomer, unassigned) [Example 30A]
Could you please tell me which of these two has the higher EC50: I or II ? Response format: the label of the selected entry. II
(II: 0.358 µM, I: 0.018 µM)

###

- Measured On: sGC α1/β1 heterodimer (Homo sapiens, UniProt Q02108+Q02153)
- Construct: expressed in transfected cells; host or cells: CHO-K1 (clone #7, CHO-K1/sGC)
- Sequence (Q02108 1-690): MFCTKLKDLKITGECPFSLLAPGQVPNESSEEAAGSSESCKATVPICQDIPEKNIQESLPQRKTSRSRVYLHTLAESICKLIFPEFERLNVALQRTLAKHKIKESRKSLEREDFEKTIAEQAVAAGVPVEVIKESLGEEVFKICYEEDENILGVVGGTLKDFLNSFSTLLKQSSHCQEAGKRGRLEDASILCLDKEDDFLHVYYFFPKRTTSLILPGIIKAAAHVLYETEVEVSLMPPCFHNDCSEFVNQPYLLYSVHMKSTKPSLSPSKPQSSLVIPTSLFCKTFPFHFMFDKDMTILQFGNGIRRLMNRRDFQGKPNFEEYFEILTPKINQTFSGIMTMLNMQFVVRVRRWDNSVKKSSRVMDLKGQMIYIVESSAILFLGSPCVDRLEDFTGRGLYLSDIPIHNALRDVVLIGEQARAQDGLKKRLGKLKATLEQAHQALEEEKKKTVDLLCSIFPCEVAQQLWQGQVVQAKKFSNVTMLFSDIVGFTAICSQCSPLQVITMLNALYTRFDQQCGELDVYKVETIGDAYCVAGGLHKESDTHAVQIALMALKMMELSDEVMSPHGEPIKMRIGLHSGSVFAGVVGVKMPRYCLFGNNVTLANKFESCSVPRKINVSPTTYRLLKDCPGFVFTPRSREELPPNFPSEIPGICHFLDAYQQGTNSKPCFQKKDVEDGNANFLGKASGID
- Sequence (Q02153 1-619): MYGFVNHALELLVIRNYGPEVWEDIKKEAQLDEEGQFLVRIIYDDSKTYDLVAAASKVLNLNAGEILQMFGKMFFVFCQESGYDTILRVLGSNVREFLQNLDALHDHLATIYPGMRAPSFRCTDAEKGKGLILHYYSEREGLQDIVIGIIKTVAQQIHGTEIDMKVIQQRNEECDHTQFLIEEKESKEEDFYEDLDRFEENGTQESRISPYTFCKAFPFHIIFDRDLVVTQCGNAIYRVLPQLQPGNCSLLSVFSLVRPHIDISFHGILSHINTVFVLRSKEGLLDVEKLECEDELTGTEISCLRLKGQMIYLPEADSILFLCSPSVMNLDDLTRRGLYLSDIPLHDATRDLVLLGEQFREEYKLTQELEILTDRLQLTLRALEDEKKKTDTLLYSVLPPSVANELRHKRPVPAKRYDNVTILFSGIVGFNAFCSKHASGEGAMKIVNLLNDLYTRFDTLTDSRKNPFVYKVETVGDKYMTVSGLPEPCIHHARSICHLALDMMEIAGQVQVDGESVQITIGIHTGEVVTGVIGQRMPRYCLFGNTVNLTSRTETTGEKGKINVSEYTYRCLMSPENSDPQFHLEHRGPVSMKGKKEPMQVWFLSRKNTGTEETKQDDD
- Method: Cell-based sGC functional assay (CASA assay): cGMP generation in CHO-K1/sGC cells, HTRF detection
- Measurement Conditions: CHO-K1, percent activation relative to standard Compound A in CHO-K1/sGC cells; read-out: % Act.
Endpoint Name: Emax (%)

CC1(c2ccc(F)cc2)C(=O)Nc2nc(-c3cn4ccnc4c(Cc4cccc(Cl)c4)n3)nc(N)c21 (stereo not shown) [Example 94A]    108
CC1(c2nnc(C3CC3)o2)C(=O)Nc2nc(-c3cn4ccnc4c(Cc4ccc(F)cc4)n3)nc(N)c21 (stereo not shown) [Example 34A]    150
CC1(c2ccc(Cl)c(F)c2)C(=O)Nc2nc(-c3cn4ccnc4c(CCCC(F)(F)F)n3)nc(N)c21 (stereo not shown) [Example 204B]    110
CC1(c2ccc(F)cc2)C(=O)Nc2nc(-c3cn4ccnc4c(-c4ccc(C5CC5)cc4)n3)nc(N)c21 (stereo not shown) [Example 6A]    115
CCCc1nc(-c2nc(N)c3c(n2)NC(=O)C3(C)c2ccc(C(F)(F)F)cc2)cn2ccnc12 (stereo not shown) [Example 131B]    88
CC1(c2ccccc2)C(=O)Nc2nc(-c3cn4ccnc4c(Cc4cccc(F)c4)n3)nc(N)c21 (stereo not shown) [Example 101B]    116
CC1(c2ccc(F)cc2)C(=O)Nc2nc(-c3cn4ccnc4c(Cc4cccc(F)c4)n3)nc(N)c21 (single isomer, unassigned) [Example 90A]    122

###

- Measured On: sGC α1/β1 heterodimer (Homo sapiens, UniProt Q02108+Q02153)
- Sequence (Q02108 1-690): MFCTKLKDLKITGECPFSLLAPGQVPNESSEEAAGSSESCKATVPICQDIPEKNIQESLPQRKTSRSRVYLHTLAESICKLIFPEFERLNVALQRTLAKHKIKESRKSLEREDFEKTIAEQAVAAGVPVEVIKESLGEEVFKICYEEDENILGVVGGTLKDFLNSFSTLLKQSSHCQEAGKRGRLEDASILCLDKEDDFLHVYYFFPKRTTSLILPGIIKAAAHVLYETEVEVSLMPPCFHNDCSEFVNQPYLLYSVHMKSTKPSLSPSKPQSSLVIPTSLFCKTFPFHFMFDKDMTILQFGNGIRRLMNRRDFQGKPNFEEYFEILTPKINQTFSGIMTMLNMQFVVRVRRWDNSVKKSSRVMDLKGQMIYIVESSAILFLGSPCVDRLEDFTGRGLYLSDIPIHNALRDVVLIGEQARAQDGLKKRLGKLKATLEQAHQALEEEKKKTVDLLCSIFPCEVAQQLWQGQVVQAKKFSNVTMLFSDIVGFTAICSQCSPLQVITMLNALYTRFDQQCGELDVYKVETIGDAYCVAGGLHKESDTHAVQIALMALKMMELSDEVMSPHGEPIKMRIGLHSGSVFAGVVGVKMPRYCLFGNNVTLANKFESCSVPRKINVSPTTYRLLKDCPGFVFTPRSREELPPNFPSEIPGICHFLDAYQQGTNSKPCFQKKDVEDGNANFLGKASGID
- Sequence (Q02153 1-619): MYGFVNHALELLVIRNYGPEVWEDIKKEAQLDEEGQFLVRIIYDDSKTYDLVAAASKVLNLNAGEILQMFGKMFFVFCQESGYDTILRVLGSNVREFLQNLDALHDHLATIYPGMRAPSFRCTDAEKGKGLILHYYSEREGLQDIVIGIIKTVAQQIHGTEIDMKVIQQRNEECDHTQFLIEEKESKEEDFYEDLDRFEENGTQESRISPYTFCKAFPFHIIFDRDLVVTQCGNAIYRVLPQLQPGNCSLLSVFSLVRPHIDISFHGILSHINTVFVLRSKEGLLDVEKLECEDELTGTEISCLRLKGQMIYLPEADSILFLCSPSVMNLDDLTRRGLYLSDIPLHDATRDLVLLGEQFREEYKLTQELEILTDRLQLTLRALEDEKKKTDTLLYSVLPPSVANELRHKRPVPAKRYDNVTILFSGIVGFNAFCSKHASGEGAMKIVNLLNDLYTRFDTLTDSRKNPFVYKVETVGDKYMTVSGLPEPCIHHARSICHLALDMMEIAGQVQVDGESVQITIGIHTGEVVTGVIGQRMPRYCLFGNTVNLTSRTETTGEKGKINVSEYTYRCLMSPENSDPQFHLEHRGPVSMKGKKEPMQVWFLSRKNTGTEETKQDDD
- Method: Cell-based sGC functional assay (CASA assay): cGMP generation in CHO-K1/sGC cells, HTRF detection
- Measurement Conditions: inflection point (IP) of cGMP generation in CHO-K1/sGC cells, 4P fit; activity expressed as percentage of Compound A
Endpoint Name: EC50 (nM)

CC(C)Cc1nc(-c2nc(N)c3c(n2)NC(=O)C3(C)c2ccc(F)cc2)cn2ccnc12 (stereo not drawn) [Example 19A]    387
CC1(c2ccc(Cl)cc2)C(=O)Nc2nc(-c3cn4ccnc4cn3)nc(N3CC(C(F)(F)F)C3)c21 (stereo not drawn) [Example 282A]    197
CCC1(C)C(=O)Nc2nc(-c3cn4ccnc4c(Cc4ccccc4)n3)nc(N)c21 (single isomer, unassigned) [Example 84B]    180
CC(C)Cc1nc(-c2nc(N)c3c(n2)NC(=O)C3(c2ccc(Cl)cn2)C2CC2)cn2ccnc12 (stereo not drawn) [Example 126B]    242

(1) Nc1nc(-c2cn3ccnc3c(CCC(F)(F)C(F)(F)F)n2)nc2c1C(c1ccc(F)cc1)(C1CCC1)C(=O)N2 (single isomer, unassigned) [Example 344B]
(2) CC1(c2ccc(F)cn2)C(=O)Nc2nc(-c3cn4ccnc4c(CCC(F)(F)C(F)(F)F)n3)nc(NC3CC3)c21 (stereo not drawn) [Example 292B]
(3) Nc1nc(-c2cn3ccnc3c(CCCC(F)(F)F)n2)nc2c1C(c1ncc(Cl)cc1F)(C1CC1)C(=O)N2 (single isomer, unassigned) [Example 371A]
I would appreciate it if you could sort these 3 compounds by EC50, starting from the smallest number. Reply with the item labels sorted in the order that was asked for. 1, 3, 2
(1: 51 nM, 3: 194 nM, 2: 951 nM)
